These data points were gathered from patent US7659240B2.

# System: mucin immobilized to PC IAM particles
# TEST_DETAILS: pH and mucin layer thickness dependence of partition ratio on MIC columns (1:2 and 2:1)
# REPORTED_CONDITIONS: column 2:1 mucin to PC IAM, 0.36 μm mucin layer; mobile phase pH 7
Where a name gives a salt, the structure may show the parent alone.
(2:1) k′ (pH 7): recorded values
I only need the number, thanks.

Answered cases to consult:
[
  {
    "COMPOUND": "C[C@]12C[C@H](O)[C@H]3[C@@H](CCC4=CC(=O)CC[C@@]43C)[C@@H]1CC[C@@H]2C(=O)CO",
    "EXPERIMENTAL_TARGET": "mucin immobilized to PC IAM particles",
    "MEASUREMENT": 24.00
  },
  {
    "COMPOUND": "Nc1nc2c(ncn2COCCO)c(=O)[nH]1",
    "EXPERIMENTAL_TARGET": "mucin immobilized to PC IAM particles",
    "MEASUREMENT": 24.00
  }
]

q: Given the entry CN(Cc1cnc2nc(N)nc(N)c2n1)c1ccc(C(=O)N[C@@H](CCC(=O)O)C(=O)O)cc1 , report its measured (2:1) k′ (pH 7).
a: 57.33

q: Given the entry C=CCc1ccccc1OCC(O)CNC(C)C (stereo not shown) , report its measured (2:1) k′ (pH 7).
a: 82.33

q: Given the entry CN(CC(=O)O)C(=N)N , report its measured (2:1) k′ (pH 7).
a: 32.33

q: Given the entry CC(C)NCC(O)COc1ccc(CC(N)=O)cc1 (stereo not shown) , report its measured (2:1) k′ (pH 7).
a: 37.33

q: Given the entry CC(COc1ccccc1)N(CCCl)Cc1ccccc1 (stereo not shown) [Phenoxybenzamine HCl] , report its measured (2:1) k′ (pH 7).
a: 15.67

q: Given the entry CC(C(=O)O)c1cccc(C(=O)c2ccccc2)c1 (stereo not shown) , report its measured (2:1) k′ (pH 7).
a: 70.67

q: Given the entry O=C(O)c1cc(/N=N/c2ccc(S(=O)(=O)Nc3ccccn3)cc2)ccc1O , report its measured (2:1) k′ (pH 7).
a: 22.33
